Molecular target: FSH receptor (Homo sapiens)
Sequence (P23945 18-695): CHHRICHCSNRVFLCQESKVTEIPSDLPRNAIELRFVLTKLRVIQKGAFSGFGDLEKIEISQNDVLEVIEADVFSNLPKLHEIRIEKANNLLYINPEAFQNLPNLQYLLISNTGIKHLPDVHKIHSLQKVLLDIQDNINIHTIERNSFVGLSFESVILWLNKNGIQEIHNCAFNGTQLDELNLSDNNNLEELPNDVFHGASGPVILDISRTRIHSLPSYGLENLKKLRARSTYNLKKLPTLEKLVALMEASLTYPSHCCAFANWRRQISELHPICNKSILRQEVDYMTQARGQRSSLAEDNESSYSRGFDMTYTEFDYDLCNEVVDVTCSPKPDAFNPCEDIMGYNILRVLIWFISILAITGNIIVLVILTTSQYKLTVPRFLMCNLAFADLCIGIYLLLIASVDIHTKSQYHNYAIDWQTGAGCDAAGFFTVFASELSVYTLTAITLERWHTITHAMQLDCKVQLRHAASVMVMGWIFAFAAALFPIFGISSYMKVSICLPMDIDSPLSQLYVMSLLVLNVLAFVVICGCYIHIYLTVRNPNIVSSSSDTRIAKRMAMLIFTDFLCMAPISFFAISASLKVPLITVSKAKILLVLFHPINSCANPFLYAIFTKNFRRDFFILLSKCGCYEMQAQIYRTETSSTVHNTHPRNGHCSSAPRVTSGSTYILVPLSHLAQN
Assay: cAMP Whole Cell assay (AlphaScreen cAMP detection) in AV12 cells stably transfected with FSH receptor
Conditions: AV12 cells expressing FSH receptor; average of two (2) trials
Assay Endpoint: EC50 (nM)
Report as a plain number; the unit nM is understood.

I am curious: what EC50 value has been reported for Cc1onc(-c2cccc(-c3ccc(-c4nnn[nH]4)cc3)c2)c1-c1csc(C2CCN(C(=O)Cc3cccs3)CC2)n1 [Example 38] ?
1100

Where do the numbers come from? From patent US20080004263A1.
